Known viability, T/C of a selection of compounds
System: KRAS PDC multicell spheroid viability
Assay: Anticancer human tumor 521955-158-R6-J3-PDC patient-derived pancreatic carcinoma cell line growth inhibition [KRAS2]
Conditions: second compound 0.0316 µM; first compound 10 µM; hits give low values
Just the number in %, nothing appended.

CC(C)NCC(C(=O)N1CCN(c2ncnc3c2C(C)CC3O)CC1)c1ccc(Cl)cc1 (stereo not drawn) + C=CC(=O)N1CCN(c2nc(OCC3CCCN3C)nc3c2CCN(c2cccc4cccc(C)c24)C3)CC1CC#N ... 65
CCNC(=O)CC1N=C(c2ccc(Cl)cc2)c2cc(OC)ccc2-n2c(C)nnc21 (stereo not drawn) + C=CC(=O)N1CCN(c2nc(OCC3CCCN3C)nc3c2CCN(c2cccc4cccc(C)c24)C3)CC1CC#N ... 76.6

Would you kindly look at the next entry?
Input: Enter reported viability, T/C observed with KRAS PDC multicell spheroid viability for COc1cc(Nc2ncc3c(n2)-c2ccc(Cl)cc2C(c2c(F)cccc2OC)=NC3)ccc1C(=O)O + C=CC(=O)N1CCN(c2nc(OCC3CCCN3C)nc3c2CCN(c2cccc4cccc(C)c24)C3)CC1CC#N
Output: 83.6

====

Tested on: KRAS PDC multicell spheroid viability
Test: Anticancer human tumor 521955-158-R6-J3-PDC cell line growth inhibition [KRAS2];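 further: drug exposure lasted seven days; 100% = DMSO vehicle wells and lower means fewer viable cells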
Conditions: second compound 0.316 µM; first compound 0.316 µM; hits give low values
Text: Multicellular complex tumor spheroid response to RAS pathway inhibitors in combination with a targeted agents in patient-derived cell lines with oncogenic KRAS variants from multiple cancer types A high-throughput screen of multi-cell type tumor spheroids was designed to identify active combinations of targeted small molecules and KRAS pathway inhibitors. […] Compounds. […] If the clinical Cmax for an agent had not been determined, the highest concentration tested was 10 microM. […]
Known viability, T/C of a selection of compounds
Just the number in %, nothing appended.

For orientation, consider the following solved cases.
CCNC(=O)CC1N=C(c2ccc(Cl)cc2)c2cc(OC)ccc2-n2c(C)nnc21 (stereo unspecified) + CNCc1ccccc1-c1csc(C(C)Nc2nc(C)nc3cc(OC)c(OC)cc23)c1 ... 72.4
CC(C)NCC(C(=O)N1CCN(c2ncnc3c2C(C)CC3O)CC1)c1ccc(Cl)cc1 (stereo unspecified) + C=CC(=O)N1CCN(c2nc(OCC3CCCN3C)nc3c2CCN(c2cccc4cccc(C)c24)C3)CC1CC#N ... 74.3
O=C(c1cc(Cc2n[nH]c(=O)c3ccccc23)ccc1F)N1CCN(C(=O)C2CC2)CC1 + COc1cc2nc(C)nc(NC(C)c3cc(N)cc(C(F)(F)F)c3)c2cc1OC1CCOC1 ... 80.5
CC(=O)OC12COC1CC(O)C1(C)C(=O)C(O)C3=C(C)C(OC(=O)C(O)C(NC(=O)OC(C)(C)C)c4ccccc4)CC(O)(C(OC(=O)c4ccccc4)C21)C3(C)C (stereo unspecified) + CC1OCC2(CCN(c3cnc(Sc4ccnc(N)c4Cl)c(N)n3)CC2)C1N ... 74.9

Input: So what does the record say about viability, T/C for O=C(c1cc(Cc2n[nH]c(=O)c3ccccc23)ccc1F)N1CCN(C(=O)C2CC2)CC1 + C=CC(=O)N1CCN(c2nc(=O)n(-c3c(C)ccnc3C(C)C)c3nc(-c4c(O)cccc4F)c(F)cc23)C(C)C1 ?
Output: 106

Input: So what does the record say about viability, T/C for COC(=O)c1ccc2c(C(=Nc3ccc(N(C)C(=O)CN4CCN(C)CC4)cc3)c3ccccc3)c(O)[nH]c2c1 + C=CC(=O)N1CCN(c2nc(OCC3CCCN3C)nc3c2CCN(c2cccc4cccc(C)c24)C3)CC1CC#N ?
Output: 103

Input: So what does the record say about viability, T/C for O=C(c1cc(Cc2n[nH]c(=O)c3ccccc23)ccc1F)N1CCN(C(=O)C2CC2)CC1 + CC1OCC2(CCN(c3cnc(Sc4ccnc(N)c4Cl)c(N)n3)CC2)C1N ?
Output: 84.1

Input: So what does the record say about viability, T/C for O=C(c1cc(Cc2n[nH]c(=O)c3ccccc23)ccc1F)N1CCN(C(=O)C2CC2)CC1 + CNCc1ccccc1-c1csc(C(C)Nc2nc(C)nc3cc(OC)c(OC)cc23)c1 ?
Output: 64.6

====

Known viability, T/C of a selection of compounds
Test system: KRAS PDC multicell spheroid viability
Experiment: Anticancer human tumor 521955-158-R6-J3-PDC cell line growth inhibition [KRAS2];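 further: drug exposure lasted seven days; 100% = DMSO vehicle wells and lower means fewer viable cells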
Conditions: second compound 0.316 µM; first compound 0.001 µM; hits give low values
Just the number in %, nothing appended.

For orientation, consider the following solved cases.
CC(C)n1nc(-c2ccc3oc(N)nc3c2)c2c(N)ncnc21 + C=CC(=O)N1CCN(c2nc(=O)n(-c3c(C)ccnc3C(C)C)c3nc(-c4c(O)cccc4F)c(F)cc23)C(C)C1 ... 97.7
CN(C)C/C=C/C(=O)Nc1cc2c(Nc3ccc(F)c(Cl)c3)ncnc2cc1O[C@H]1CCOC1 + C=CC(=O)N1CCN(c2nc(OCC3CCCN3C)nc3c2CCN(c2cccc4cccc(C)c24)C3)CC1CC#N ... 92.2
CC(C)n1nc(-c2ccc3oc(N)nc3c2)c2c(N)ncnc21 + CNCc1ccccc1-c1csc(C(C)Nc2nc(C)nc3cc(OC)c(OC)cc23)c1 ... 81.1

Would you kindly look at the next entry?
Input: So what does the record say about viability, T/C for Cn1ncnc1[C@H]1c2n[nH]c(=O)c3cc(F)cc(c23)N[C@@H]1c1ccc(F)cc1 + C=CC(=O)N1CCN(c2nc(=O)n(-c3c(C)ccnc3C(C)C)c3nc(-c4c(O)cccc4F)c(F)cc23)C(C)C1 ?
Output: 102

====

Known viability, T/C of a selection of compounds
Test system: KRAS PDC multicell spheroid viability
Experiment: Anticancer human tumor 521955-158-R6-J3-PDC cell line growth inhibition [KRAS2];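 further: drug exposure lasted seven days; 100% = DMSO vehicle wells and lower means fewer viable cells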
Details: second compound 0.316 µM; first compound 0.1 µM; hits give low values
Just the number in %, nothing appended.

For orientation, consider the following solved cases.
CC(=O)OC12COC1CC(O)C1(C)C(=O)C(O)C3=C(C)C(OC(=O)C(O)C(NC(=O)OC(C)(C)C)c4ccccc4)CC(O)(C(OC(=O)c4ccccc4)C21)C3(C)C (stereo not given) + CC1OCC2(CCN(c3cnc(Sc4ccnc(N)c4Cl)c(N)n3)CC2)C1N ... 72.5
COc1cc2nccc(Oc3ccc(NC(=O)C4(C(=O)Nc5ccc(F)cc5)CC4)cc3)c2cc1OC + CC1OCC2(CCN(c3cnc(Sc4ccnc(N)c4Cl)c(N)n3)CC2)C1N ... 91
CC1COCCN1c1cc(-c2ccnn2C)c2ccnc(-c3ccn[nH]3)c2n1 (stereo not given) + C=CC(=O)N1CCN(c2nc(OCC3CCCN3C)nc3c2CCN(c2cccc4cccc(C)c24)C3)CC1CC#N ... 73.1
COC(=O)c1ccc2c(C(=Nc3ccc(N(C)C(=O)CN4CCN(C)CC4)cc3)c3ccccc3)c(O)[nH]c2c1 + C=CC(=O)N1CCN(c2nc(OCC3CCCN3C)nc3c2CCN(c2cccc4cccc(C)c24)C3)CC1CC#N ... 102
Cn1ncnc1[C@H]1c2n[nH]c(=O)c3cc(F)cc(c23)N[C@@H]1c1ccc(F)cc1 + CC1OCC2(CCN(c3cnc(Sc4ccnc(N)c4Cl)c(N)n3)CC2)C1N ... 78.2

Input: So what does the record say about viability, T/C for CC1OCC2(CCN(c3cnc(Sc4ccnc(N)c4Cl)c(N)n3)CC2)C1N (stereo not given) + C=CC(=O)N1CCN(c2nc(=O)n(-c3c(C)ccnc3C(C)C)c3nc(-c4c(O)cccc4F)c(F)cc23)C(C)C1 ?
Output: 94.4

Input: So what does the record say about viability, T/C for CC(C)NCC(C(=O)N1CCN(c2ncnc3c2C(C)CC3O)CC1)c1ccc(Cl)cc1 (stereo not given) + CNCc1ccccc1-c1csc(C(C)Nc2nc(C)nc3cc(OC)c(OC)cc23)c1 ?
Output: 80

Input: So what does the record say about viability, T/C for COC(=O)c1ccc2c(C(=Nc3ccc(N(C)C(=O)CN4CCN(C)CC4)cc3)c3ccccc3)c(O)[nH]c2c1 + C=CC(=O)N1CCN(c2nc(=O)n(-c3c(C)ccnc3C(C)C)c3nc(-c4c(O)cccc4F)c(F)cc23)C(C)C1 ?
Output: 108

Input: So what does the record say about viability, T/C for O=C(c1cc(Cc2n[nH]c(=O)c3ccccc23)ccc1F)N1CCN(C(=O)C2CC2)CC1 + C=CC(=O)N1CCN(c2nc(=O)n(-c3c(C)ccnc3C(C)C)c3nc(-c4c(O)cccc4F)c(F)cc23)C(C)C1 ?
Output: 118

Input: So what does the record say about viability, T/C for COC(=O)c1ccc2c(C(=Nc3ccc(N(C)C(=O)CN4CCN(C)CC4)cc3)c3ccccc3)c(O)[nH]c2c1 + CNCc1ccccc1-c1csc(C(C)Nc2nc(C)nc3cc(OC)c(OC)cc23)c1 ?
Output: 93.3

====

Known viability, T/C of a selection of compounds
Tested on: KRAS PDC multicell spheroid viability
Experiment: Anticancer human tumor 521955-158-R6-J3-PDC cell line growth inhibition [KRAS2];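 further: drug exposure lasted seven days; 100% = DMSO vehicle wells and lower means fewer viable cells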
Conditions: second compound 3.16 µM; first compound 0.1 µM; hits give low values
Just the number in %, nothing appended.

For orientation, consider the following solved cases.
COc1cc2nccc(Oc3ccc(NC(=O)C4(C(=O)Nc5ccc(F)cc5)CC4)cc3)c2cc1OC + C=CC(=O)N1CCN(c2nc(OCC3CCCN3C)nc3c2CCN(c2cccc4cccc(C)c24)C3)CC1CC#N ... 44
CC(=O)OC12COC1CC(O)C1(C)C(=O)C(O)C3=C(C)C(OC(=O)C(O)C(NC(=O)OC(C)(C)C)c4ccccc4)CC(O)(C(OC(=O)c4ccccc4)C21)C3(C)C (stereo not given) + C=CC(=O)N1CCN(c2nc(=O)n(-c3c(C)ccnc3C(C)C)c3nc(-c4c(O)cccc4F)c(F)cc23)C(C)C1 ... 90.3
CC(C)NCC(C(=O)N1CCN(c2ncnc3c2C(C)CC3O)CC1)c1ccc(Cl)cc1 (stereo not given) + C=CC(=O)N1CCN(c2nc(=O)n(-c3c(C)ccnc3C(C)C)c3nc(-c4c(O)cccc4F)c(F)cc23)C(C)C1 ... 72

Input: Enter reported viability, T/C observed with KRAS PDC multicell spheroid viability for COc1cc2nccc(Oc3ccc(NC(=O)C4(C(=O)Nc5ccc(F)cc5)CC4)cc3)c2cc1OC + C=CC(=O)N1CCN(c2nc(=O)n(-c3c(C)ccnc3C(C)C)c3nc(-c4c(O)cccc4F)c(F)cc23)C(C)C1
Output: 82.9

Input: Enter reported viability, T/C observed with KRAS PDC multicell spheroid viability for CC1OCC2(CCN(c3cnc(Sc4ccnc(N)c4Cl)c(N)n3)CC2)C1N (stereo not given) + C=CC(=O)N1CCN(c2nc(=O)n(-c3c(C)ccnc3C(C)C)c3nc(-c4c(O)cccc4F)c(F)cc23)C(C)C1
Output: 95.9
